Tested on: human hepatocytes
assay-procedure: Hepatocytes stability assay (human hepatocytes)
Format: in vitro ADME
measurement-setup: human hepatocytes; scaled hepatic clearance divided by liver blood flow (well-stirred model, fu assumed unity)
Would you kindly list Extraction Ratio (ER) for each of these compounds?

Request: Which measured Extraction Ratio (ER) belongs to Cc1cccc2c1C1CCC(CC1)OC[C@H]1[C@@H](NS(=O)(=O)C(C)C)CCCN1C(=O)CO2 (stereo in doubt) , tested on human hepatocytes?
Result: 0.83

Request: Same again, this time with Cc1ccnc2c1[C@H]1CC[C@H](CC1)OCC1[C@@H](NS(=O)(=O)C3CC3)CCCN1C(=O)CO2 (stereo in doubt)
Result: 0.76

Request: Same again, this time with Cc1ncnc2c1[C@H]1CC[C@H](CC1)OC[C@H]1[C@@H](NS(C)(=O)=O)CCCN1C(=O)CO2 (stereo in doubt)
Result: <0.22

Request: Same again, this time with C=CS(=O)(=O)N[C@H]1CCCN2C(=O)COc3ccccc3C3CCC(CC3)OC[C@@H]12 (stereo in doubt)
Result: 0.77

Request: Same again, this time with O=C1COc2ccccc2[C@H]2CC[C@H](CC2)OCC2[C@@H](NS(=O)(=O)C3CCCC3)CCCN12 (stereo in doubt)
Result: 0.86

Request: Same again, this time with CC[C@@H](C)S(=O)(=O)N[C@H]1CCCN2C(=O)COc3ccccc3C3CCC(CC3)OC[C@@H]12 (stereo in doubt)
Result: 0.84

Request: Same again, this time with CC(C)S(=O)(=O)N[C@H]1CCCN2C(=O)COc3nccnc3[C@H]3CC[C@H](CC3)OCC12 (stereo in doubt)
Result: <0.22

Request: Same again, this time with O=C1COc2ccccc2[C@H]2CC[C@H](CC2)OCC2[C@@H](NS(=O)(=O)CF)CCCN12 (stereo in doubt)
Result: 0.73

Request: Same again, this time with Cc1ccnc2c1[C@H]1CC[C@H](CC1)OCC1[C@@H](NS(=O)(=O)C3CCOC3)CCCN1C(=O)CO2 (stereo in doubt) [Compound 90]
Result: 0.61

Request: Same again, this time with CC[C@@H]1Oc2ccccc2[C@H]2CC[C@H](CC2)OCC2[C@@H](NS(C)(=O)=O)CCCN2C1=O (stereo in doubt)
Result: 0.82

Request: Same again, this time with CS(=O)(=O)N[C@H]1CCCN2C(=O)[C@@H](CO)Oc3ccccc3[C@H]3CC[C@H](CC3)OCC12 (stereo in doubt)
Result: 0.36

Request: Same again, this time with O=C1COc2ncccc2[C@H]2CC[C@H](CC2)OCC2[C@@H](NS(=O)(=O)C(F)(F)F)CCCN12 (stereo in doubt)
Result: 0.42

Request: Same again, this time with O=C1COc2ccccc2[C@H]2CC[C@H](CC2)OCC2[C@@H](NS(=O)(=O)C3CCOC3)CCCN12 (stereo in doubt) [Compound 22]
Result: 0.66

Request: Same again, this time with CC(C)S(=O)(=O)N[C@H]1CCCN2CCOc3ncccc3[C@H]3CC[C@H](CC3)OCC12 (stereo in doubt)
Result: 0.87

Request: Same again, this time with CC[C@H]1Oc2ccccc2[C@H]2CC[C@H](CC2)OCC2[C@@H](NS(C)(=O)=O)CCCN2C1=O (stereo in doubt)
Result: 0.84

Request: Same again, this time with Cc1cccc2c1[C@H]1CC[C@H](CC1)OC[C@H]1[C@@H](NS(C)(=O)=O)CCN1C(=O)CO2
Result: 0.80

Request: Same again, this time with O=C1COc2ccccc2C2CCC(CC2)OC[C@H]2[C@@H](NS(=O)(=O)C(F)F)CCCN12 (stereo in doubt)
Result: 0.74

Request: Same again, this time with Cc1cccc2c1C1CCC(CC1)OC[C@H]1[C@@H](NS(C)(=O)=O)CCCN1C(=O)CO2 (stereo in doubt)
Result: 0.80

Request: Same again, this time with COC(=O)N1CCC[C@H](NS(C)(=O)=O)[C@@H]1CO[C@H]1CC[C@@H](c2ccccc2)CC1 [Reference Compound A, reference compound]
Result: 0.92

Request: Same again, this time with Cc1ncnc2c1[C@H]1CC[C@H](CC1)OCC1[C@@H](NS(=O)(=O)C(C)C)CCN1C(=O)CO2 (stereo in doubt)
Result: 0.38

Request: Same again, this time with Cc1cccc2c1OCCN1CCC[C@H](NS(C)(=O)=O)C1CO[C@H]1CC[C@@H]2CC1 (stereo in doubt)
Result: 0.90

Request: Same again, this time with CC[C@H](C)S(=O)(=O)N[C@H]1CCCN2C(=O)COc3ccccc3C3CCC(CC3)OC[C@@H]12 (stereo in doubt)
Result: 0.84

Request: Same again, this time with Cc1ccc2c(c1C)[C@H]1CC[C@H](CC1)OCC1[C@@H](NS(C)(=O)=O)CCCN1C(=O)CO2 (stereo in doubt)
Result: 0.52

Request: Same again, this time with Cc1ccnc2c1C1CCC(CC1)OC[C@H]1[C@@H](NS(C)(=O)=O)CCCN1C(=O)CO2 (stereo in doubt)
Result: 0.59

Request: Same again, this time with C[C@@H]1C[C@H](NS(C)(=O)=O)[C@@H]2CO[C@H]3CC[C@H](CC3)c3ccccc3OCC(=O)N12
Result: 0.86

---

Test system: human hepatocytes
assay-procedure: Hepatocytes stability assay (human hepatocytes)
Assay type: in vitro ADME
measurement-setup: human hepatocytes; scaled hepatic clearance divided by liver blood flow (well-stirred model, fu assumed unity)
Please mark true if the recorded Extraction Ratio (ER) is equal to or greater than 0.8, and false if it falls below.

Request: Reported Extraction Ratio (ER) reaches at least 0.8 for O=C1COc2cccc(F)c2[C@H]2CC[C@H](CC2)OCC2[C@@H](NS(=O)(=O)C(F)(F)F)CCCN12 (stereo in doubt) ?
Result: false

Request: Same again, this time with Cc1c(Cl)ccc2c1[C@H]1CC[C@H](CC1)OCC1[C@@H](NS(=O)(=O)C3CC3)CCCN1C(=O)CO2 (stereo in doubt)
Result: false

Request: Same again, this time with Cc1ccnc2c1[C@H]1CC[C@H](CC1)OCC1[C@@H](NS(=O)(=O)C(C)C)CCN1C(=O)CO2 (stereo in doubt)
Result: false

Request: Same again, this time with O=C1COc2ccccc2[C@H]2CC[C@H](CC2)OCC2[C@@H](NS(=O)(=O)CC3CCC3)CCCN12 (stereo in doubt)
Result: true

Request: Same again, this time with O=C1COc2ncccc2C2CCC(CC2)OC[C@H]2[C@@H](NS(=O)(=O)C3CC3)CCCN12 (stereo in doubt)
Result: false

Request: Same again, this time with Cc1ccnc2c1[C@H]1CC[C@H](CC1)OCC1[C@@H](NS(=O)(=O)C3CCOC3)CCCN1C(=O)CO2 (stereo in doubt) [Compound 89]
Result: false

Request: Same again, this time with CC1(S(=O)(=O)N[C@H]2CCCN3CCOc4ccccc4[C@H]4CC[C@H](CC4)OCC23)CC1 (stereo in doubt)
Result: true

---

System: MDR1
assay-procedure: MDCK-MDR1 permeability assay
Format: in vitro ADME
measurement-setup: dog, MDCK-MDR1, MDCK-MDR1 cells; test compound 3 μM; 2 hours at 37 degrees C; apical to basolateral
assay-metric: Papp A→B at 2 h, 3 μM (×10⁻⁶ cm/s)
Number in ×10⁻⁶ cm/s, nothing else.

Request: Recorded Papp A→B at 2 h, 3 μM of Cc1ccnc2c1[C@H]1CC[C@H](CC1)OCC1[C@@H](NS(=O)(=O)C3CC3)CCCN1C(=O)CO2 (stereo in doubt) , please.
Result: 0.092

Request: Same again, this time with CC[C@H]1Oc2ccccc2[C@H]2CC[C@H](CC2)OCC2[C@@H](NS(C)(=O)=O)CCCN2C1=O (stereo in doubt)
Result: 0.45

---

System: MDCK-MDR1 cells
assay-procedure: MDCK-MDR1 permeability assay
Format: in vitro ADME
measurement-setup: MDCK-MDR1 cells; test compound 3 μM; 2 hours at 37 degrees C; apical to basolateral
Would you kindly list Papp A → B (10^−6 cm/s) for each of these compounds?

Request: Recorded Papp A → B (10^−6 cm/s) of Cc1ccnc2c1[C@H]1CC[C@H](CC1)OCC1[C@@H](NS(=O)(=O)C3CCOC3)CCCN1C(=O)CO2 (stereo in doubt) , please.
Result: 0.62 10^−6 cm/s

Request: Same again, this time with Cc1ncnc2c1[C@H]1CC[C@H](CC1)OC[C@H]1[C@@H](NS(C)(=O)=O)CCCN1C(=O)CO2 (stereo in doubt)
Result: <0.091 10^−6 cm/s

Request: Same again, this time with Cc1ncnc2c1[C@H]1CC[C@H](CC1)OCC1[C@@H](NS(C)(=O)=O)CCCN1C(=O)CO2 (stereo in doubt)
Result: 0.33 10^−6 cm/s

Request: Same again, this time with O=C1COc2ccccc2[C@H]2CC[C@H](CC2)OCC2[C@@H](NS(=O)(=O)C3CCOC3)CCCN12 (stereo in doubt)
Result: 0.23 10^−6 cm/s
